Tested on: CFA-induced cold hypersensitivity of the hind paw
Assay: CFA-induced pain test, cold hypersensitivity (cold plate paw withdrawal latency)
Assay type: in vivo
Settings: 3 mg/kg PO, 1-2 hour pre-treatment; cold plate 1° C.; solution in 4% DMSO; 5% Tween-80; 20% Cremophor EL; and 71% water
quantity: PWL Change
// unit must come after the numeric part

Use the examples below as a reference point.
molecule	PWL Change
CCC(=O)Cn1c(=O)c2c(ncn2[C@@H](C)C(=O)Nc2csc(-c3cnc(N4CCC[C@H]4C(F)(F)F)nc3)n2)n(C)c1=O [Compound 18]	136.4 s
Cc1noc(Cn2c(=O)c3c(ncn3[C@@H](C)C(=O)Nc3cccc(-c4cnc(C(F)(F)F)nc4)n3)n(C)c2=O)n1 [Compound 104]	176.8 s
COCC(=O)Cn1c(=O)c2c(ncn2[C@@H](C)C(=O)Nc2csc(-c3cnc(N4CC5CC5C4)nc3)n2)n(C)c1=O (stereo partly shown) [Compound 105]	123.6 s
CC(=O)Cn1c(=O)c2c(ncn2[C@@H](C)C(=O)Nc2ccnc(-c3cnc(N4CC5C(C4)C5(F)F)nc3)n2)n(C)c1=O (stereo partly shown) [Compound 61]	182.7 s
CC(=O)Cn1c(=O)c2c(ncn2[C@@H](C)C(=O)Nc2cncc(-c3cnc(N4CC5C(C4)C5(F)F)nc3)n2)n(C)c1=O (stereo partly shown) [Compound 74]	182.3 s

So what does the record say about PWL Change for C[C@@H](C(=O)Nc1csc(-c2cnc(N3CC4CC4C3)nc2)n1)n1cnc2c1c(=O)n(CC#N)c(=O)n2C (stereo partly shown) [Compound 34] ? 169.0 s

Now give it for Cc1noc(Cn2c(=O)c3c(ncn3[C@@H](C)C(=O)Nc3cncc(-c4cnc(C(F)(F)F)nc4)n3)n(C)c2=O)n1 [Compound 160] too. 146.2 s

* * *

System: formalin-induced pain behaviors in the rat
Test: Formalin-induced pain test (formalin model), duration of pain behaviors
Assay type: in vivo
Conditions: 3 mg/kg PO one hour prior to formalin, solution in 4% DMSO, 5% Tween-80, 20% Cremophor EL, 71% water
Labelling: Duration (0-5 Minutes) Average reported below 200 s becomes t; at or above becomes f.

Reference set, count: 2
molecule	group_label
Cc1noc(Cn2c(=O)c3c(ncn3[C@@H](C)C(=O)Nc3cncc(-c4cnc(C(F)(F)F)nc4)n3)n(C)c2=O)n1 [Compound 160]	f
CC(=O)Cn1c(=O)c2c(ncn2[C@@H](C)C(=O)Nc2cccc(-c3cnc(N4CC5C(C4)C5(F)F)nc3)n2)n(C)c1=O (some centres unmarked) [Compound 25]	t

Below 200 s on Duration (0-5 Minutes) Average? Entry CC(=O)Cn1c(=O)c2c(ncn2[C@@H](C)C(=O)Nc2ccnc(-c3cnc(N4CC5C(C4)C5(F)F)nc3)n2)n(C)c1=O (some centres unmarked) [Compound 61] t

Now the same for Cc1cc(Cn2c(=O)c3c(ncn3[C@@H](C)C(=O)Nc3cncc(-c4cnc(C(F)(F)F)nc4)n3)n(C)c2=O)no1 [Compound 21] t

Now this one: CC(=O)Cn1c(=O)c2c(ncn2[C@@H](C)C(=O)Nc2cccc(-c3cnc(C)c(C(F)(F)F)c3)n2)n(C)c1=O [Compound 97] t

* * *

# key: entry, value: IC50
Biological target: human TRPA1 (Homo sapiens (Human))
Sequence (O75762 whole entry): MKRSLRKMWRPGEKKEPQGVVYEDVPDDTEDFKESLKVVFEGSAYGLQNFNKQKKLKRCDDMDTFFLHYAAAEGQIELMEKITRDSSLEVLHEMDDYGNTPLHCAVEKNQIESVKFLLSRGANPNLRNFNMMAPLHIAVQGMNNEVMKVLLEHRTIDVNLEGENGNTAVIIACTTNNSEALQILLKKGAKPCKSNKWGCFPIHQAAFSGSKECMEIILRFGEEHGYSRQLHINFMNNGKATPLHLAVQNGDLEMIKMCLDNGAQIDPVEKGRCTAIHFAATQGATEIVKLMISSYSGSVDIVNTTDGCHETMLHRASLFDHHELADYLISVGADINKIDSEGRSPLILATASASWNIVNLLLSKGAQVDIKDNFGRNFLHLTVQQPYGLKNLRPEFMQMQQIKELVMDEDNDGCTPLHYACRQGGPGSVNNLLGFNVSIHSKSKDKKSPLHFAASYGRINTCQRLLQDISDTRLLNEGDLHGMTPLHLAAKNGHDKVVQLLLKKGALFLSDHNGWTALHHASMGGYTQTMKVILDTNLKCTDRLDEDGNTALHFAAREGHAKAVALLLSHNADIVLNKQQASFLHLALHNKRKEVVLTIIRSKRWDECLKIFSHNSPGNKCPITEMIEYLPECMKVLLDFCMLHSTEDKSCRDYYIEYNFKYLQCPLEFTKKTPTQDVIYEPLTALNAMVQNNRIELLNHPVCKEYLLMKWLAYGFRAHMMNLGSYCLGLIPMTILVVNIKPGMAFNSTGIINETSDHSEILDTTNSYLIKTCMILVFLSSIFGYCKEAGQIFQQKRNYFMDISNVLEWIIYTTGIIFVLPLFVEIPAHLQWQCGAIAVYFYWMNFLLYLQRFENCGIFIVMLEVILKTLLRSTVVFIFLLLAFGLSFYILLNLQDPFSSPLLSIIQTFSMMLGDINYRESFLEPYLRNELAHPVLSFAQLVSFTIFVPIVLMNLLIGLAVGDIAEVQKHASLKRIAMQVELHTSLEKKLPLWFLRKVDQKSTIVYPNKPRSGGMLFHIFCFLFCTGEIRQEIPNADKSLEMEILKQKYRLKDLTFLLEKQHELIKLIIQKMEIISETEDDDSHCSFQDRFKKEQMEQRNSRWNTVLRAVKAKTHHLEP
Assay: In vitro inhibition of human TRPA1, whole cell patch configuration
Format: cell-based
Settings: current activation 10 μM AITC, tested concentrations 320 pM to 3.2 μM, read-out: hTRPA1 IC50

Illustrative cases are given below, each with its answer.
molecule	study_target	quantity	experimental_result
CC(=O)Cn1c(=O)c2c(ncn2[C@@H](C)C(=O)Nc2ccnc(-c3ccc(N4CC5CC5C4)nc3)n2)n(C)c1=O (stereo partly drawn)	human TRPA1 (Homo sapiens (Human))	IC50	22 nM
CCC(=O)Cn1c(=O)c2c(ncn2CC(=O)Nc2cccc(-c3cnc(C(F)(F)F)c(C)c3)n2)n(C)c1=O	human TRPA1 (Homo sapiens (Human))	IC50	8 nM
CC(=O)Cn1c(=O)c2c(ncn2[C@@H](C)C(=O)Nc2cncc(-c3cnc(C)c(C(F)(F)F)c3)n2)n(C)c1=O	human TRPA1 (Homo sapiens (Human))	IC50	8 nM
Cc1cc(Cn2c(=O)c3c(ncn3CC(=O)Nc3csc(-c4cnc(C(F)(F)F)c(C)c4)n3)n(C)c2=O)no1	human TRPA1 (Homo sapiens (Human))	IC50	3 nM
Cc1noc(Cn2c(=O)c3c(ncn3[C@@H](C)C(=O)Nc3csc(-c4cnc(N5CC6CC6C5)nc4)n3)n(C)c2=O)n1 (stereo partly drawn)	human TRPA1 (Homo sapiens (Human))	IC50	6 nM

If you can, please state the reported IC50 value of Cc1nc(Cn2c(=O)c3c(ncn3CC(=O)Nc3csc(-c4cnc(C(F)(F)F)c(C)c4)n3)n(C)c2=O)no1 . 20 nM

Next record, please: CCC(=O)Cn1c(=O)c2c(ncn2[C@@H](C)C(=O)Nc2cccc(-c3ccc(C(F)(F)F)nc3)n2)n(C)c1=O > 3200 nM

What do we get for Cc1nc(Cn2c(=O)c3c(ncn3CC(=O)Nc3cccc(-c4cnc(C)c(C(F)(F)F)c4)n3)n(C)c2=O)no1 ? 7 nM

Same for Cc1cc(Cn2c(=O)c3c(ncn3[C@@H](C)C(=O)Nc3ccnc(-c4cnc(C(F)(F)F)c(C)c4)n3)n(C)c2=O)no1 3 nM

Same question, CC(=O)Cn1c(=O)c2c(ncn2[C@@H](C)C(=O)Nc2cccc(-c3ccc(N4CC5C(C4)C5(F)F)nc3)n2)n(C)c1=O (stereo partly drawn) this time 8 nM

Field entry: CC#CCn1c(=O)c2c(ncn2[C@@H](C)C(=O)Nc2csc(-c3ccc(N4CC5CC5C4)nc3)n2)n(C)c1=O (stereo partly drawn) 4 nM

Likewise for COCC(=O)Cn1c(=O)c2c(ncn2[C@@H](C)C(=O)Nc2cccc(-c3cnc(N4CC5CC5C4)nc3)n2)n(C)c1=O (stereo partly drawn) ? 7 nM
